Target: A II receptor
Assay: receptor binding test: displacement of 125I-Sar1-Ile8-AT II or [H3] AT II in the rat adrenal cortex
Measurement type: pKi
The quantity pKi is defined as the negative base-10 logarithm of the molar concentration.

Q. State its pKi for this compound: CCCCc1nc(-c2cccc[n+]2[O-])cn1Cc1ccc(-c2ccccc2-c2nn[nH]n2)cc1 [Example 10e]
A. 8.19
